Origin of measurements: ChEMBL document CHEMBL3045426

# Tested on: Proteus vulgaris
# METHOD: Antimicrobial activity against Proteus vulgaris after 18 to 20 hr by agar dilution method
# Type: functional
Recorded MIC, one value per entry.

COMPOUND	TARGET OR SYSTEM	MEASURE UNIT	MIC
COc1cc(Cc2cnc(/N=C3\C(=O)N(CN4CCN(C(=O)c5ccc(F)cc5)CC4)c4ccc(Cl)cc43)nc2N)cc(OC)c1OC	Proteus vulgaris	µg/mL	2500
COc1cccc(N2CCN(CN3C(=O)/C(=N\c4ncc(Cc5cc(OC)c(OC)c(OC)c5)c(N)n4)c4cc(Cl)ccc43)CC2)c1	Proteus vulgaris	µg/mL	1250
COc1cc(Cc2cnc(/N=C3\C(=O)N(CN4CCN(c5c(F)cc6c(=O)c(C(=O)O)cn(C7CC7)c6c5F)CC4C)c4ccc(Cl)cc43)nc2N)cc(OC)c1OC (centres undefined)	Proteus vulgaris	µg/mL	0.0763
COc1cc(Cc2cnc(/N=C3\C(=O)N(CN(Cc4ccccc4)Cc4ccccc4)c4ccc(Cl)cc43)nc2N)cc(OC)c1OC	Proteus vulgaris	µg/mL	625

---

# Tested on: Plesiomonas
# METHOD: Antimicrobial activity against Plesiomonas after 18 to 20 hr by agar dilution method
# Format: functional
ASSAY READOUT: MIC

COMPOUND	ASSAY READOUT	RESULT
COc1cc(Cc2cnc(/N=C3\C(=O)N(CN4CCC(C)CC4)c4ccc(Cl)cc43)nc2N)cc(OC)c1OC	MIC	39.1 µg/mL
O=C(O)c1cn(C2CC2)c2cc(N3CCNCC3)c(F)cc2c1=O	MIC	0.04 µg/mL
COc1cc(Cc2cnc(/N=C3\C(=O)N(CN4CCN(C(=O)c5ccc(F)cc5)CC4)c4ccc(Cl)cc43)nc2N)cc(OC)c1OC	MIC	9.76 µg/mL
COc1c(N2CCNC(C)C2)c(F)cc2c(=O)c(C(=O)O)cn(C3CC3)c12 (stereo not given)	MIC	2.44 µg/mL
COc1cc(Cc2cnc(/N=C3\C(=O)N(CN4CCN(c5cc6c(cc5F)c(=O)c(C(=O)O)cn6C5CC5)CC4)c4ccc(Cl)cc43)nc2N)cc(OC)c1OC	MIC	1.22 µg/mL

---

# METHOD: Cytotoxicity against Homo sapiens (human) HuH7 cells assessed as cell growth at 50 ug/ml after 3 days by Neutral red assay
# Format: cell-based, Huh-7
# CONDITION: read-out: Activity

COMPOUND	viability at 72 h, 50 ug/ml / %
COc1cc(Cc2cnc(/N=C3\C(=O)N(CN4CCCCC4C)c4ccc(Cl)cc43)nc2N)cc(OC)c1OC (stereo not given)	112
COc1cccc(N2CCN(CN3C(=O)/C(=N\c4ncc(Cc5cc(OC)c(OC)c(OC)c5)c(N)n4)c4cc(Cl)ccc43)CC2)c1	71
CCn1cc(C(=O)O)c(=O)c2cc(F)c(N3CCN(CN4C(=O)/C(=N\c5ncc(Cc6cc(OC)c(OC)c(OC)c6)c(N)n5)c5cc(Cl)ccc54)C(C)C3)c(F)c21 (stereo not given)	85
COc1cc(Cc2cnc(/N=C3\C(=O)N(CN4CCN(Cc5ccccc5)CC4)c4ccc(Cl)cc43)nc2N)cc(OC)c1OC	79
COc1cc(Cc2cnc(/N=C3\C(=O)N(CN4CCN(C)CC4)c4ccc(Cl)cc43)nc2N)cc(OC)c1OC	83
COc1cc(Cc2cnc(/N=C3\C(=O)N(CN4CCN(c5ccccn5)CC4)c4ccc(Cl)cc43)nc2N)cc(OC)c1OC	101
COc1cc(Cc2cnc(/N=C3\C(=O)N(CN4CCN(c5ccc(F)cc5)CC4)c4ccc(Cl)cc43)nc2N)cc(OC)c1OC	64
COc1cc(Cc2cnc(/N=C3\C(=O)N(CN4CCN(c5ccc(Cl)cc5)CC4)c4ccc(Cl)cc43)nc2N)cc(OC)c1OC	56
COc1cc(Cc2cnc(/N=C3\C(=O)N(CN4CCN(C(=O)c5ccc(F)cc5)CC4)c4ccc(Cl)cc43)nc2N)cc(OC)c1OC	71
COc1cc(Cc2cnc(/N=C3\C(=O)N(CN4CCC(C)CC4)c4ccc(Cl)cc43)nc2N)cc(OC)c1OC	108
COc1cc(Cc2cnc(/N=C3\C(=O)N(CN4CCN(c5cccc(Cl)c5)CC4)c4ccc(Cl)cc43)nc2N)cc(OC)c1OC	67
COc1cc(Cc2cnc(/N=C3\C(=O)N(CN(Cc4ccccc4)Cc4ccccc4)c4ccc(Cl)cc43)nc2N)cc(OC)c1OC	65
CCCCN(CCCC)CN1C(=O)/C(=N\c2ncc(Cc3cc(OC)c(OC)c(OC)c3)c(N)n2)c2cc(Cl)ccc21	48
CCN(CC)CN1C(=O)/C(=N\c2ncc(Cc3cc(OC)c(OC)c(OC)c3)c(N)n2)c2cc(Cl)ccc21	72
COc1cc(Cc2cnc(/N=C3\C(=O)N(CN4CCN(c5cc6c(cc5F)c(=O)c(C(=O)O)cn6C5CC5)CC4)c4ccc(Cl)cc43)nc2N)cc(OC)c1OC	109

---

# METHOD: Cytotoxicity against Homo sapiens (human) CEM cells after 5 days by MTT assay
# Format: cell-based
# CONDITION: CEM cells (CCRF-CEM)
Collected CC50 at 120 h values appear next to each entry.

COMPOUND	CC50 at 120 h
COc1cc(Cc2cnc(/N=C3\C(=O)N(CN4CCN(C(=O)c5ccc(F)cc5)CC4)c4ccc(Cl)cc43)nc2N)cc(OC)c1OC	51 µg/mL
COc1cc(Cc2cnc(/N=C3\C(=O)N(CN4CCN(c5ccc(F)cc5)CC4)c4ccc(Cl)cc43)nc2N)cc(OC)c1OC	71 µg/mL
COc1cc(Cc2cnc(/N=C3\C(=O)N(CN4CCN(c5ccccn5)CC4)c4ccc(Cl)cc43)nc2N)cc(OC)c1OC	29.4 µg/mL
CCn1cc(C(=O)O)c(=O)c2cc(F)c(N3CCN(CN4C(=O)/C(=N\c5ncc(Cc6cc(OC)c(OC)c(OC)c6)c(N)n5)c5cc(Cl)ccc54)C(C)C3)c(F)c21 (stereo not drawn)	18.7 µg/mL
COc1cc(Cc2cnc(/N=C3\C(=O)N(CN4CCC(C)CC4)c4ccc(Cl)cc43)nc2N)cc(OC)c1OC	46.3 µg/mL
COc1cc(Cc2cnc(/N=C3\C(=O)N(CN(Cc4ccccc4)Cc4ccccc4)c4ccc(Cl)cc43)nc2N)cc(OC)c1OC	37.1 µg/mL
COc1cccc(N2CCN(CN3C(=O)/C(=N\c4ncc(Cc5cc(OC)c(OC)c(OC)c5)c(N)n4)c4cc(Cl)ccc43)CC2)c1	23.3 µg/mL
COc1cc(Cc2cnc(/N=C3\C(=O)N(CN4CCCCC4C)c4ccc(Cl)cc43)nc2N)cc(OC)c1OC (stereo not drawn)	> 83.8 µg/mL

---

# Test system: Salmonella enteritidis
# METHOD: Antimicrobial activity against Salmonella enterica subsp. enterica serovar Enteritidis after 18 to 20 hr by agar dilution method
# Type: functional
Attribute: MIC
ASSAY READOUT: MIC (µg/mL)

MOLECULE	QUANTITATIVE RESULT
CCn1cc(C(=O)O)c(=O)c2cc(F)c(N3CCN(CN4C(=O)/C(=N\c5ncc(Cc6cc(OC)c(OC)c(OC)c6)c(N)n5)c5cc(Cl)ccc54)C(C)C3)c(F)c21 (centres undefined)	0.0095
COc1cc(Cc2cnc(/N=C3\C(=O)N(CN4CCN(c5ccc(F)cc5)CC4)c4ccc(Cl)cc43)nc2N)cc(OC)c1OC	625
COc1cc(Cc2cnc(/N=C3\C(=O)N(CN4CCCCC4C)c4ccc(Cl)cc43)nc2N)cc(OC)c1OC (centres undefined)	625
CCn1cc(C(=O)O)c(=O)c2cc(F)c(N3CCNC(C)C3)c(F)c21 (centres undefined)	19.5

---

# METHOD: Cytotoxicity against Homo sapiens (human) CEM cells after 5 days by MTT assay
# Format: cell-based
# CONDITION: CEM cells (CCRF-CEM)
We label by threshold. Values of CC50 at 120 h strictly beneath 90 µg/mL are yes (1). Values of 90 µg/mL and up are no (0).

COMPOUND	ASSIGNED CATEGORY
COc1cc(Cc2cnc(/N=C3\C(=O)N(CN4CCN(c5cc6c(cc5F)c(=O)c(C(=O)O)cn6C5CC5)CC4)c4ccc(Cl)cc43)nc2N)cc(OC)c1OC	no (0)
COc1cc(Cc2cnc(/N=C3\C(=O)N(CN4CCN(Cc5ccccc5)CC4)c4ccc(Cl)cc43)nc2N)cc(OC)c1OC	no (0)
COc1cc(Cc2cnc(/N=C3\C(=O)N(CN4CCN(c5c(F)cc6c(=O)c(C(=O)O)cn(C7CC7)c6c5F)CC4C)c4ccc(Cl)cc43)nc2N)cc(OC)c1OC (configuration not stated)	yes (1)
CCN(CC)CN1C(=O)/C(=N\c2ncc(Cc3cc(OC)c(OC)c(OC)c3)c(N)n2)c2cc(Cl)ccc21	no (0)
COc1cc(Cc2cnc(/N=C3\C(=O)N(CN4CCN(c5cccc(Cl)c5)CC4)c4ccc(Cl)cc43)nc2N)cc(OC)c1OC	yes (1)
COc1cc(Cc2cnc(/N=C3\C(=O)N(CN4CCN(c5ccc(Cl)cc5)CC4)c4ccc(Cl)cc43)nc2N)cc(OC)c1OC	yes (1)
